These measurements were taken from patent US10947188B2.

tested on: BJeLR; assay: Modulatory profiling: Alamar Blue viability, lethal compound cotreated with death modulator (EC50, AUC); assay type: cell-based, human; set-up: unit not given beside the values; conditions: BJeLR cells; lethal compound cotreated with modulator Nec-1; modulatory profile value (AUC); note: reference of the scale not given here
Reported Endpoint: AUC, modulator BJ.Nec-1

INPUT: Consider the compound shown here: COc1cccc2c1C(=O)c1c(O)c3c(c(O)c1C2=O)C[C@@](O)(C(C)=O)C[C@@H]3O[C@H]1C[C@H](N)[C@H](O)[C@H](C)O1 What is its recorded AUC, modulator BJ.Nec-1?
OUTPUT: −0.02055

INPUT: Same question for CC(C(NNC(=O)c1ccc(C(F)(F)F)cc1)c1ccc(Br)cc1)[N+](=O)[O-] (stereo not shown) please.
OUTPUT: −0.0482

INPUT: Ok, now Cc1[nH]c2c(ccc3ccccc32)c1C1C(CCN)C1(C)C (stereo not shown)
OUTPUT: −0.02489

INPUT: Try this compound too: COC(=O)c1[nH]c2ccc(Br)cc2c1NC(=O)CN1CCN(C2CCCCC2)CC1
OUTPUT: −0.02956
